B1: library; numbered along this chain (parent)
chain: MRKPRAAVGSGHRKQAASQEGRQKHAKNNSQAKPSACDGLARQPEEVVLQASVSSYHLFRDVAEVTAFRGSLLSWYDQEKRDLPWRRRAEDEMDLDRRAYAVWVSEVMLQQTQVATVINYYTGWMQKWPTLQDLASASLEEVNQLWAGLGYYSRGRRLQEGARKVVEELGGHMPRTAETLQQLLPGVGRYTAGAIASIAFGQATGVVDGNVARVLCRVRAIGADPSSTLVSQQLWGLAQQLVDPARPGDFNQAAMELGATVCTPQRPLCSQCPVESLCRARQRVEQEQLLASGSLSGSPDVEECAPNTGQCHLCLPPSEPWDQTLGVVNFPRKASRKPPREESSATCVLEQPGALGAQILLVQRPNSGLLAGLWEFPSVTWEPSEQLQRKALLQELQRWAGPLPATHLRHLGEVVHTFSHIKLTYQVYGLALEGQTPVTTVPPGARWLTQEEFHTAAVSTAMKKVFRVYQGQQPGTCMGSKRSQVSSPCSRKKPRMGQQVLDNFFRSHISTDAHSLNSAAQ

# Variants of: B1
# method: 8OG:A repair function score (normalized; synonymous = 0, nonsense = -1) (normalized log-likelihood score); higher = more repair activity (WT-like);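 note: cells sorted at 72 h after reporter transfection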
# assay.conditions: with 8OG:A DNA repair reporter (GFP) in HEK-293 MUTYH KO cells
Please provide measured 8OG:A repair function score for the entries that follow.
Respond with the number and no other words.

Inquiry: Quick one: 8OG:A repair function score for T436K ?
Reply text: -0.201

Inquiry: Quick one: 8OG:A repair function score for Q310E ?
Reply text: -0.0263

Inquiry: Quick one: 8OG:A repair function score for P185C ?
Reply text: -0.242

Inquiry: Quick one: 8OG:A repair function score for R157F ?
Reply text: -0.0928

Inquiry: Quick one: 8OG:A repair function score for P320T ?
Reply text: -0.0175

Inquiry: Quick one: 8OG:A repair function score for R189T ?
Reply text: -0.184

Inquiry: Quick one: 8OG:A repair function score for R281F ?
Reply text: -0.126

Inquiry: Quick one: 8OG:A repair function score for L241F ?
Reply text: -0.872

Inquiry: Quick one: 8OG:A repair function score for A357R ?
Reply text: -0.0515

Inquiry: Quick one: 8OG:A repair function score for G479S ?
Reply text: 0.00355

Inquiry: Quick one: 8OG:A repair function score for G70T ?
Reply text: -0.693

Inquiry: Quick one: 8OG:A repair function score for Q126Y ?
Reply text: -0.055

Inquiry: Quick one: 8OG:A repair function score for V166N ?
Reply text: -0.124

Inquiry: Quick one: 8OG:A repair function score for E106V ?
Reply text: -1.33

Inquiry: Quick one: 8OG:A repair function score for G186T ?
Reply text: -0.373

Inquiry: Quick one: 8OG:A repair function score for K333C ?
Reply text: 0.053

Inquiry: Quick one: 8OG:A repair function score for G248D ?
Reply text: -0.876

Inquiry: Quick one: 8OG:A repair function score for G186M ?
Reply text: -0.885

Inquiry: Quick one: 8OG:A repair function score for A357Q ?
Reply text: 0.125

Inquiry: Quick one: 8OG:A repair function score for L370H ?
Reply text: -0.297

Inquiry: Quick one: 8OG:A repair function score for C269Y ?
Reply text: -1.12

Inquiry: Quick one: 8OG:A repair function score for R266Y ?
Reply text: -0.102

Hey, just so you know, these numbers are from the supplement of paper PMC11908140.
